Data credit: the supplement of paper PMC13380429

Test system: Vero E6
Experiment: cell viability relative to DMSO; higher = less toxic
Conditions: 72 h; 10000 nM
attribute-measured: cell viability (%)

> print(dat)
                                   compound  attribute.measured  measured.value
1  CC(C)NC[C@@H](O)c1ccc(O)c(O)c1 (racemic)      cell viability            79.8
2  CN(C)CCn1nnnc1SCC1=C(C(=O)O)N2C(=O)[C@@H](NC(=O)Cc3csc(N)n3)[C@H]2SC1      cell viability             104
3                      C[N+](C)(C)NCCC(=O)O      cell viability             101
4     O=C(O)CCc1nc(-c2ccccc2)c(-c2ccccc2)o1      cell viability            97.2
5              CCCN(CCC)CCc1cccc2c1CC(=O)N2      cell viability            96.3
6  OC[C@H]1O[C@@H](n2cnc3c(NC4CCCC4)ncnc32)[C@H](O)[C@@H]1O      cell viability             102
7  COc1cc(/C=C(\C#N)C(N)=O)cc(CSc2nc3ccccc3s2)c1O      cell viability             105
8  C#C[C@]1(O)CC[C@H]2[C@@H]3CCC4=C(CCC(=O)C4)[C@H]3CC[C@@]21C      cell viability             101
9  O=C(NOCCO)c1cc(CN2OCCCC2=O)c(F)c(F)c1Nc1ccc(I)cc1F      cell viability            50.4
